Data credit: patent US20130330324A1

# system: Human HER3, endogenous, on human cancer cell lines (human, UniProt P21860 20-1342); also: test concentration or dose not given here
# procedure_details: cell-based or functional assay
Please go through the items and note down their BT-474 pAkt (S473) % inhibition.
State the answer as a number, implicitly in %.

Exercise: Item under review: MOR09823 (antibody, human IgG1, kappa, V domains shown, tested as IgG) VH: QVQLVESGGGLVQPGGSLRLSCAASGFTFSSYAMSWVRQAPGKGLEWVSVTGAVGRTYYPDSVKGRFTISRDNSKNTLYLQMNSLRAEDTAVYYCARWGDEGFDIWGQGTLVTVSS VL: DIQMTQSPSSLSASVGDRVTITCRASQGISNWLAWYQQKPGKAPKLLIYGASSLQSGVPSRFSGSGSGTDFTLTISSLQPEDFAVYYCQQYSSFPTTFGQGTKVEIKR . Reported BT-474 pAkt (S473) % inhibition?
Key: 57

Exercise: Item under review: MOR10701 (antibody, human IgG1, kappa, V domains shown, tested as IgG) VH: EVQLLESGGGLVQPGGSLRLSCAASGFTFSSYAMSWVRQAPGKGLEWVSVTGAVGRSTYYPDSVKGRFTISRDNSKNTLYLQMNSLRAEDTAVYYCARWGDEGFDIWGQGTLVTVSS VL: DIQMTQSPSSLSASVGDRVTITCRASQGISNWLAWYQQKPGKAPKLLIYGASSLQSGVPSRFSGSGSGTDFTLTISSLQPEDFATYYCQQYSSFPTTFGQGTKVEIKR . Reported BT-474 pAkt (S473) % inhibition?
Key: 59

Exercise: Item under review: MOR09825 (antibody, human IgG1, kappa, V domains shown, tested as IgG) VH: QVQLVESGGGLVQPGGSLRLSCAASGFTFSSYAMSWVRQAPGKGLEWVSAINSQGKSTYYADSVKGRFTISRDNSKNTLYLQMNSLRAEDTAVYYCARWGDEGFDIWGQGTLVTVSS VL: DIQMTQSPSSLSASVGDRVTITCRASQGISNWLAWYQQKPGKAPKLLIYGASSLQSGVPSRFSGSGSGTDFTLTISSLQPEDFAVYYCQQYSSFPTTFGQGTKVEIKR . Reported BT-474 pAkt (S473) % inhibition?
Key: 69
